biological target: YAP-TEAD protein interaction (His-TEAD1 (209-426) protein, Bio-YAP peptide (60-100)) (Homo sapiens, UniProt P28347); experiment: YAP-TEAD protein interaction HTRF experiment; conditions: His-TEAD1 (209-426) 10 nM, Bio-YAP peptide 50 nM, read-out: Activity of each compound in blocking YAP-TEAD protein interaction (grades of IC50 values)
Sequence (P28347 209-426): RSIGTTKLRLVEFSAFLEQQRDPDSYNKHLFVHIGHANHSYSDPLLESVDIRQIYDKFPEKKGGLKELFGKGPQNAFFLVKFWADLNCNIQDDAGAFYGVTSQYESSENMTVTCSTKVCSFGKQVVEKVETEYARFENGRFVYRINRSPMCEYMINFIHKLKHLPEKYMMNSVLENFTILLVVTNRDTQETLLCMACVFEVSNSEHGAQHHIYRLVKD
pIC50: −log10 of the molar value.
Measurement type: pIC50

Consider the following illustrative entries.
[[record]]
compound = "NC(=O)c1cc2c(c(F)c1-c1c(Cl)c(F)cc3c1C[C@](c1ccccc1)([C@@H]1CCCN1)O3)Oc1c(cnn(C3CC3)c1=O)O2 [Compound 111]"
reported_measurement = "> 7.30"

[[record]]
compound = "Cn1cc2c(n1)Oc1c(cc(C(N)=O)c(-c3c(Cl)c(F)cc4c3C[C@](c3ccccc3)([C@@H]3CCCN3)O4)c1F)O2 (atropisomer, axis not shown) [Compound 8]"
reported_measurement = "> 7.30"

[[record]]
compound = "N#CCC1Cc2cc(C(N)=O)c(-c3c(Cl)c(F)cc4c3C[C@](c3ccccc3)([C@@H]3CCCN3)O4)c(F)c2O1 (some centres unmarked) [Compound I-55]"
reported_measurement = "> 7.30"


Name the recorded pIC50 for NC(=O)c1cc2c(c(F)c1-c1c(Cl)c(F)cc3c1C[C@](c1ccccc1)([C@@H]1CCCN1)O3)OCc1nncn1-2 (atropisomer, axis not shown) [Compound 42] . > 7.30

Name the recorded pIC50 for CCn1ncc2c(c1=O)Oc1cc(C(N)=O)c(-c3c(Cl)c(F)cc4c3C[C@](c3ccccc3)([C@@H]3CCCN3)O4)c(F)c1O2 (atropisomer, axis not shown) [Compound 110] . > 7.30

Name the recorded pIC50 for NC(=O)c1cc2c(c(F)c1-c1c(Cl)c(F)cc3c1C[C@](c1ccccc1)([C@@H]1CCCN1)O3)OC(CO)CO2 (some centres unmarked) [Compound I-53] . > 7.30

Name the recorded pIC50 for NC(=O)c1cc2c(c(F)c1-c1c(Cl)c(F)cc3c1C[C@](c1ccccc1)([C@@H]1CCCN1)O3)Oc1nc(CO)cnc1O2 (atropisomer, axis not shown) [Compound 101] . > 7.30

Name the recorded pIC50 for NC(=O)c1cc2c(c(F)c1-c1c(Cl)c(F)cc3c1C[C@](c1ccccc1)([C@@H]1CCCN1)O3)Oc1cnn(CC(F)F)c(=O)c1O2 (atropisomer, axis not shown) [Compound 121] . > 7.30

Name the recorded pIC50 for NC(=O)c1cc2c(c(F)c1-c1c(Cl)c(F)cc3c1C[C@](c1ccccc1)([C@@H]1CCCN1)O3)OCC21CCNCC1 (atropisomer, axis not shown) [Compound 44] . 6.30 to 7.30

Name the recorded pIC50 for CNC(=O)c1cc2c(c(F)c1-c1c(Cl)c(F)cc3c1C[C@](c1ccccc1)([C@@H]1CCCN1)O3)OCCN2 (atropisomer, axis not shown) [Compound I-26] . > 7.30

Name the recorded pIC50 for CCn1cc2c(n1)COc1c-2cc(C(N)=O)c(-c2c(Cl)c(F)cc3c2C[C@](c2ccccc2)([C@@H]2CCCN2)O3)c1F (atropisomer, axis not shown) [Compound 62] . > 7.30

====

test system: MSTO-211H cells; assay: Cell proliferation inhibition experiment (CellTiter-Glo); format: cell-based; conditions: Homo sapiens, 96 hours, read-out: Inhibitory activity of each compound on the proliferation of MSTO-211H cells (grades of IC50 values)
Measurement type: IC50

[[record]]
molecule = "Cn1cc2c(n1)COc1c-2cc(C(N)=O)c(-c2c(Cl)c(F)cc3c2C[C@](c2ccccc2)([C@@H]2CCC(=O)N2)O3)c1F (atropisomer, axis not shown)"
assayed_system = "MSTO-211H cells"
reported_measurement = "500 to 5000 nM"


Name the recorded IC50 for Cn1cc2c(n1)COc1c-2cc(C(N)=O)c(-c2c(Cl)c(F)cc3c2C[C@@](CN[C@H]2CC[C@H](C(N)=O)CC2)(c2ccccc2)O3)c1F (atropisomer, axis not shown) . 200 to 500 nM

Name the recorded IC50 for CNC[C@@]1(c2ccccc2)Cc2c(cc(F)c(Cl)c2-c2c(C(N)=O)cn3ccnc3c2F)O1 (atropisomer, axis not shown) . < 200 nM
